Recorded growth reduction for the following molecules
- System: Staphylococcus aureus Sa2 (MRSA, cystic fibrosis isolate)
- method notes: growth reduction vs untreated control (viable cell count); higher = stronger antibacterial activity; extreme values may be limits of the assay
- conditions: 0.1 mM; 24 h

molecule: CCNC1=Nc2ccc(Cl)cc2C(C)(c2ccccc2)O1 (centres undefined)
unit: %
growth reduction: 100
//
molecule: Cc1cc2c(C(C)C)c(O)c(O)c(C=O)c2c(O)c1-c1c(C)cc2c(C(C)C)c(O)c(O)c(C=O)c2c1O [(R)-(-)-Gossypol acetic acid]
unit: %
growth reduction: 100
//
molecule: O=c1c2ccccc2[se]n1-c1ccccc1
unit: %
growth reduction: 100
//
molecule: Cc1cc2c(C(C)C)c(O)c(O)c(C=O)c2c(O)c1-c1c(C)cc2c(C(C)C)c(O)c(O)c(C=O)c2c1O [Gossypol (acetic acid)]
unit: %
growth reduction: 100

###

- Test system: Staphylococcus aureus Sa2 (MRSA, cystic fibrosis isolate)
- method notes: growth reduction vs untreated control (OD550); higher = stronger antibacterial activity
- conditions: 0.1 mM; 24 h

molecule: O=C(CNC(=O)c1ccc(C2=NOC(c3cc(Cl)cc(C(F)(F)F)c3)(C(F)(F)F)C2)c2ccccc12)NCC(F)(F)F (stereo unspecified) [Afoxolaner]
growth reduction (%): 100
--
molecule: CCNC1=Nc2ccc(Cl)cc2C(C)(c2ccccc2)O1 (stereo unspecified) [Etifoxine]
growth reduction (%): 100
--
molecule: c1ccc2c(c1)Sc1ccccc1N2CC1CN2CCC1CC2 (stereo unspecified) [Mequitazine]
growth reduction (%): 99.3
--
molecule: Cc1cc2c(C(C)C)c(O)c(O)c(C=O)c2c(O)c1-c1c(C)cc2c(C(C)C)c(O)c(O)c(C=O)c2c1O [Gossypol]
growth reduction (%): 98.4
--
molecule: CC[C@H](C)C1O[C@]2(C=C[C@@H]1C)C[C@@H]1C[C@@H](C/C=C(\C)[C@@H](O[C@H]3C[C@H](OC)[C@@H](O[C@H]4C[C@H](OC)[C@H](NC)[C@H](C)O4)[C@H](C)O3)[C@@H](C)/C=C/C=C3\CO[C@@H]4[C@H](O)C(C)=C[C@@H](C(=O)O1)[C@]34O)O2 (stereo partly specified) [Emamectin (Benzoate)]
growth reduction (%): 98
--
molecule: Cc1cc2c(C(C)C)c(O)c(O)c(C=O)c2c(O)c1-c1c(C)cc2c(C(C)C)c(O)c(O)c(C=O)c2c1O [Gossypol (acetic acid)]
growth reduction (%): 99.3

###

- System: Staphylococcus aureus Sa2 (MRSA, cystic fibrosis isolate)
- method notes: growth reduction vs untreated control (OD550); higher = stronger antibacterial activity
- conditions: 0.1 mM; 24 h
Structures can show the parent of a compound that is named as a salt.
quantity name: growth reduction (%)

compound: C[S+]([O-])CCCCN=C=S (stereo not drawn)
obs value: 97.9

compound: O=C(O)c1nn(Cc2ccc(Cl)cc2Cl)c2ccccc12
obs value: 90.9

compound: Fc1ccc(C(OCCN2CCN(CCCc3ccccc3)CC2)c2ccc(F)cc2)cc1 [Vanoxerine (dihydrochloride)]
obs value: 100

###

growth reduction for assorted compounds
- System: Staphylococcus aureus Sa2 (MRSA, cystic fibrosis isolate)
- method notes: growth reduction vs untreated control (viable cell count); higher = stronger antibacterial activity; extreme values may be limits of the assay
- conditions: 0.1 mM; 24 h
Counter-ions that a name gives are not always drawn.

compound: CC[C@H](C)C1O[C@]2(C=C[C@@H]1C)C[C@@H]1C[C@@H](C/C=C(\C)[C@@H](O[C@H]3C[C@H](OC)[C@@H](O[C@H]4C[C@H](OC)[C@H](NC)[C@H](C)O4)[C@H](C)O3)[C@@H](C)/C=C/C=C3\CO[C@@H]4[C@H](O)C(C)=C[C@@H](C(=O)O1)[C@]34O)O2 (stereo partly specified) [Emamectin (Benzoate)]
growth reduction, %: 100
//
compound: Cc1cc2c(C(C)C)c(O)c(O)c(C=O)c2c(O)c1-c1c(C)cc2c(C(C)C)c(O)c(O)c(C=O)c2c1O [Gossypol]
growth reduction, %: 100
//
compound: O=C(O)c1nn(Cc2ccc(Cl)cc2Cl)c2ccccc12
growth reduction, %: 90
//
compound: c1ccc2c(c1)Sc1ccccc1N2CC1CN2CCC1CC2 (stereo unspecified)
growth reduction, %: 96
//
compound: Fc1ccc(C(OCCN2CCN(CCCc3ccccc3)CC2)c2ccc(F)cc2)cc1 [Vanoxerine (dihydrochloride)]
growth reduction, %: 99
//
compound: O=C(CNC(=O)c1ccc(C2=NOC(c3cc(Cl)cc(C(F)(F)F)c3)(C(F)(F)F)C2)c2ccccc12)NCC(F)(F)F (stereo unspecified)
growth reduction, %: 98

Where do the numbers come from? From the supplement of paper PMC12024424.
